Property: pIC50; scope: individual compounds
# system: BACE2 (Rattus norvegicus, UniProt Q6IE75)
# Construct: endogenous cellular BACE2 in the Ins1e rat cell line; endogenous in cells
# Sequence (Q6IE75 63-514): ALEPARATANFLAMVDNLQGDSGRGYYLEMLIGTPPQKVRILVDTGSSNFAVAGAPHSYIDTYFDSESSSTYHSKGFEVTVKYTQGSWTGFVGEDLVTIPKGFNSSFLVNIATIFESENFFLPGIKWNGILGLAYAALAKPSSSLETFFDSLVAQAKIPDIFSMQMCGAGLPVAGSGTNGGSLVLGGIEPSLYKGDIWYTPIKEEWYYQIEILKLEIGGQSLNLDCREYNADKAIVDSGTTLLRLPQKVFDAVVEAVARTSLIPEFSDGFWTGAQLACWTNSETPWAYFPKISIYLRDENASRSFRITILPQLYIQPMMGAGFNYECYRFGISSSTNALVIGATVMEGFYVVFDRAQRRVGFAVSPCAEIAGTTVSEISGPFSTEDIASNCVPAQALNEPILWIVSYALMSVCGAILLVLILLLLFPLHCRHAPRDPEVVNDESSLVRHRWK
# experiment-summary: BACE inhibition by measuring cellular TMEM27 cleavage (INS-TMEM27 cells, ELISA)
# protocol-conditions: INS-TMEM27 (Ins1e rat) cells, shed human TMEM27 by ELISA; read-out: BACE2 cell act. IC50
pIC50 here: minus log base 10 of the concentration, concentration in moles per litre.

Illustrative cases are given below, each with its answer.
> print(dat)
                                   compound                                    system  observed
1  CC1(C)OC(N)=N[C@](C)(c2cc(-c3cc(Cl)cc(Cl)c3)ccc2F)C1(F)F [Example 51]  BACE2 (Rattus norvegicus, UniProt Q6IE75)      5.47
2  COc1ccccc1Nc1ccc(F)c([C@@]2(C)N=C(N)OC(C)(C)C2(F)F)c1 [Example 44]  BACE2 (Rattus norvegicus, UniProt Q6IE75)      5.53
3  C[C@]1(c2cc(NCc3nn(C(F)F)cc3Cl)ccc2F)N=C(N)OCC1(F)F [Example 16]  BACE2 (Rattus norvegicus, UniProt Q6IE75)      5.60

Please examine the following record next.
Suppose we examine the compound C[C@]1(c2cc(NCC3CC3)ccc2F)N=C(N)OCC1(F)F [Example 25] ; what pIC50 value has been reported?
5.78

###

# system: BACE2 (Rattus norvegicus)
# Construct: endogenous cellular BACE2 in the Ins1e rat cell line; endogenous in cells
# experiment-summary: BACE inhibition by measuring cellular TMEM27 cleavage (INS-TMEM27 cells, ELISA)
# protocol-conditions: INS-TMEM27 (Ins1e rat) cells, shed human TMEM27 by ELISA; read-out: BACE2 cell act. IC50
In this section we review reported pIC50 values for a set of compounds.
Keep in mind that pIC50 stands for -log10 of concentration in molar terms.

Worked cases, answers included:
> print(dat)
                                   compound  observed
1  CC1(C)OC(N)=N[C@](C)(c2cc(NC3CCCC3)ccc2F)C1(F)F      5.85
2  CC1(C)OC(N)=N[C@](C)(c2cc(Nc3cccc(C(F)(F)F)n3)ccc2F)C1(F)F      5.56
3  C[C@]1(c2cc(NCc3cccs3)ccc2F)N=C(N)OC[C@@H]1F      5.95
4  Cc1ccc(Cc2cc3cc(F)c([C@@]4(C)N=C(N)OCC4(F)F)cc3[nH]2)cc1      4.96
5  C[C@]1(c2cc(NCc3ccccc3F)ccc2F)N=C(N)OC[C@@H]1F      6.62
6  Cn1cc(Cl)c(CNc2ccc(F)c([C@@]3(C)N=C(N)OC[C@]3(C)F)c2)n1      7.10
7  Cc1nc(C(C)Nc2ccc(F)c([C@@]3(C)N=C(N)OC[C@]3(C)F)c2)c(C(F)(F)F)o1 (mixture of isomers)      7.17

Quick one: pIC50 of C[C@]1(c2cc(Nc3ccccc3OC(F)F)ccc2F)N=C(N)OC[C@@H]1F ?
5.74
